ASSAY_PROCEDURE: NS1 protein of Zika virus - qHTS assay to identify small molecule inhibitors in human HEK 293 cells (AID 1347053);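 note: plate controls were infected untreated cells for no effect and uninfected cells for full effect; nearly all actives have a fitted effect of over 55% in size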
SETTINGS: HEK293 ZIKV MR766 infection, NS1 TR-FRET, 24 h; series mostly up to 46.1 µM
Inconclusive results are not listed. Activity calls are given as the source filed them. Calls come from the whole dose curve; as a rule, active = well fitted inhibition curve with a large enough effect; inconclusive = small, poorly fitted or top-dose-only effect; inactive = no such curve, though single readings can be large or run the other way.
Tick one outcome: active, inactive

COMPOUND: CC(C)(C)c1cc(NC(=O)Nc2ccc(-c3cn4c(n3)sc3cc(OCCN5CCOCC5)ccc34)cc2)no1
CLASS_ASSIGNMENT: inactive

Q: What was the test verdict on "O=c1c2ccccc2nc2n1CCc1c-2[nH]c2ccccc12" ?
A: inactive

Q: What was the test verdict on COc1cc(-c2nn(C3CCC(N4CCN(C(C)=O)CC4)CC3)c3ncnc(N)c23)ccc1NC(=O)c1cc2ccccc2n1C (centres undefined) ?
A: inactive

---

ASSAY_PROCEDURE: qHTS drug screen for cell cycle checkpoint inhibitors in PARPi-resistant BRCA-mutant ovarian cancer cell lines. (AID 1963452)
SETTINGS: PEO1/OlaR viability, CellTiter-Glo luminescence, 96 h; measured here: PEO4 Z-AUC; stronger effect = lower value
Text: Women's Malignancies Branch, Center for Cancer Research (CCR), National Cancer Institute (NCI), National Institutes of Health (NIH), Bethesda, MD Poly (ADP-ribose) polymerase inhibitors (PARPis) have changed the treatment paradigm in breast cancer gene (BRCA) - mutant high-grade serous ovarian carcinoma (HGSC). […] 6; Detection; Luminescence, PHERAstar (BMG Labtech) plate reader. […] 6. Luminescence readings were taken using PHERAstar (BMG Labtech). […]
MEASUREMENT_KIND: Z-AUC

Record excerpt, results attached:
ITEM_SMILES: c1ccc2c(CCNc3ccc(Nc4ccncc4)cc3)c[nH]c2c1
READOUT_VALUE: -1.17
--
ITEM_SMILES: CNC(=O)c1ccc(N2C(=S)N(c3cnc(C#N)c(C(F)(F)F)c3)C(=O)C23CCC3)cc1F
READOUT_VALUE: 0.0749
--
ITEM_SMILES: NCC(=O)Nc1ccc(-n2nc(C(F)(F)F)cc2-c2ccc3c(ccc4ccccc43)c2)cc1
READOUT_VALUE: -0.389

Z-AUC recorded for this compound, "COc1cc(C(C)C)c2c(c1)S(=O)(=O)N(COc1cc(=O)n3cccc(OCCN4CCCCC4)c3n1)C2=O" , is 0.892

Z-AUC recorded for this compound, "COCCOc1ccc2c(c1)ncn2-c1ccc2cccc(N3CCC(N)CC3)c2n1" , is 0.806

Z-AUC recorded for this compound, "Cc1ccc(NC(=O)C2(c3ccc4c(c3)OC(F)(F)O4)CC2)nc1-c1cccc(C(=O)O)c1" , is 0.515

Z-AUC recorded for this compound, "O=C(NC1CCNCC1)c1[nH]ncc1NC(=O)c1c(Cl)cccc1Cl" , is -1.05

Z-AUC recorded for this compound, "C[C@@H]1CN(CC(=O)Nc2ccc3c(c2)Cc2cccc(-c4cc(=O)cc(N5CCOCC5)o4)c2S3)C[C@H](C)O1" , is 0.901

Z-AUC recorded for this compound, "C[C@@H](Oc1cc(-n2cnc3ccc(CN4CCN(C)CC4)cc32)sc1C(N)=O)c1ccccc1C(F)(F)F" , is -1.51

---

Test system: CP237
ASSAY_PROCEDURE: qHTS profiling for inhibitors of Plasmodium falciparum proliferation (AID 504749); note: nearly all actives have a fitted effect of over 60% in size
SETTINGS: P. falciparum in erythrocytes, SYBR Green DNA, 72 h; series mostly up to 28.7 µM
Results filed as inconclusive are left out. Active and inactive are the calls of the source. Calls come from the whole dose curve; as a rule, active = well fitted inhibition curve with a large enough effect; inconclusive = small, poorly fitted or top-dose-only effect; inactive = flat fitted curve, though single readings scatter.
Tick one outcome: active, inactive

Some entries whose results are on file:
MOLECULE: COC(=O)C1=C(C)NC(C)=C(C(=O)OCCN2CCN(C(c3ccccc3)c3ccccc3)CC2)C1c1cccc([N+](=O)[O-])c1 (stereo not given)
CLASS_ASSIGNMENT: active

MOLECULE: COC(=O)C[C@](O)(CCCC(C)(C)O)C(=O)O[C@@H]1C(OC)=C[C@]23CCCN2CCc2cc4c(cc2[C@H]13)OCO4
CLASS_ASSIGNMENT: active

MOLECULE: CC(C)(C)NC(=O)[C@H]1CN(Cc2cccnc2)CCN1C[C@@H](O)C[C@@H](Cc1ccccc1)C(=O)N[C@H]1c2ccccc2C[C@H]1O
CLASS_ASSIGNMENT: active

MOLECULE: Nc1ccn([C@@H]2O[C@H](CO)[C@H](O)C2(F)F)c(=O)n1
CLASS_ASSIGNMENT: active

MOLECULE: C[C@H]1C[C@@H]2[C@@H]([C@@H](O)C[C@@]3(C)[C@H]2CC[C@]3(O)C(=O)CO)[C@@]2(C)C=CC(=O)C=C12
CLASS_ASSIGNMENT: inactive

Q: What was the test verdict on "CCC1=C[C@@H]2CN(C1)Cc1c([nH]c3ccccc13)[C@@](C(=O)OC)(c1cc3c(cc1OC)N(C)[C@@H]1[C@@](O)(C(=O)OC)[C@H](OC(C)=O)[C@]4(CC)C=CCN5CC[C@]31[C@@H]54)C2" ?
A: active

Q: What was the test verdict on "O=C(O)CO.[NH2-].[NH2-].[Pt+2]" ?
A: inactive

Q: What was the test verdict on "COc1cc(C(=O)NS(=O)(=O)c2ccccc2C)ccc1Cc1cn(C)c2ccc(NC(=O)OC3CCCC3)cc12" ?
A: inactive

Q: What was the test verdict on O=c1[nH]c(=O)n(C2CCCO2)cc1F (stereo not given) ?
A: inactive

Q: What was the test verdict on "Nc1ccc(S(=O)(=O)Nc2ncccn2)cc1" ?
A: inactive
